Tested on: EKVX NSCLC
Assay procedure: NCI-60 one-dose screen, 48 h (100 = growth as untreated, 0 = no growth, -100 = all killed)
Conditions used: 10 µM unless noted
This is part of a sample that, as a whole, favours compounds with a hit. Of some 83,000 tested, about 20% had one in any assay.
Readout label: growth (%)
Answers are plain numbers, in %.

In [3]: df
Out[3]:
                                   molecule  units_label  numeric_readout
0  CC(C)(C)c1ccc(C(=O)Nc2sc3c(c2C(N)=O)CC/C(=N\O)C3)cc1            %             25.9
1  O=C(CCn1c[n+](CC(=O)c2ccc(F)cc2)c2ccccc21)Nc1cccc2cccnc12            %             89.5
2  O=c1c2ccccc2nc(COc2ccccc2)n1NS(=O)(=O)c1ccc(Cl)cc1            %             74.8

List the reported growth of each molecule below.
1. CCNC(=O)N1CCc2cc(OC)c(OCCc3ccc(OC)c(N)c3)cc2C1c1ccc(C)cc1C (stereo not given)
2. C#CCn1cccc1CNc1ccc(OC)cc1

*A*
44
-83

###

Test system: HCC-2998 colon
Assay procedure: NCI-60 one-dose screen, 48 h (100 = growth as untreated, 0 = no growth, -100 = all killed)
Conditions used: 10 µM unless noted
Compounds without any hit were thinned out: in the full panel of roughly 83,000, 20% have a hit.
Please go through the items and note down their growth.
One number for each entry, in %.

Would you please look over these solved cases?
                                   molecule  numeric_readout
0  CCC(NC(c1cc2cccc3ccc4cccc1c4c32)c1nnnn1C(C)(C)C)C1CCCCC1 (stereo unspecified)             90.3
1  C#CCNC1CCC(c2csc(C#C)n2)=C1C (stereo unspecified)              107
2  CN(C)C(=O)c1cc(-c2ccc3ncnc(NCc4ccccc4)c3c2)cnc1N              102
3          COc1cc(OC)c(S(N)(=O)=O)cc1C(C)=O              106
4  O=C(CCn1cc[n+](CC(=O)c2ccc(-c3ccccc3)cc2)c1)Nc1cccc2cccnc12             68.4

List the reported growth of each molecule below.
1. NC(=O)c1cccc(C#CCNC[C@H]2C[C@@H](n3ccc4c(Cl)ncnc43)[C@H](O)[C@@H]2O)c1
2. O=C(CN1CCN(c2cc(=O)[nH]c3ccc(F)cc23)CC1)Nc1ccc(Cl)cc1

*A*
1: 107; 2: 92.3

###

System: SK-OV-3 ovarian
Assay procedure: NCI-60 one-dose screen, 48 h (100 = growth as untreated, 0 = no growth, -100 = all killed)
Conditions used: 10 µM unless noted
About 83,000 compounds went through this panel and 20% of them were active in at least one assay; those are over-represented in the sample as a whole.
Please go through the items and note down their growth.
Numbers only, in %.

List the reported growth of each compound below.
1. Cn1ccnc1C(=O)/C=C/c1ccc(CNC(=O)c2ccc(Cl)cc2)cc1
2. C=CCn1c(SCC(=O)Nc2ccc(C(=O)/C=C/c3ccc(Br)cc3)cc2)nnc1-c1c[nH]c2ccccc12
3. O=S(=O)(NCCCNc1nccc(-n2cnc3ccccc32)n1)c1ccc(C(F)(F)F)cc1
4. NC(N)=Nc1ccc(Oc2cccc(NC(N)=Nc3ccc(I)cc3F)c2)cn1
5. COc1ccc(CCOc2cc3c(cc2OC)CCN(C(=O)NCc2cocn2)C3c2ccc(C)cc2C)cc1 (configuration not stated)
6. Fc1ccc(-c2cc3nc(C(Cl)Cl)nc(-c4ccco4)n3n2)cc1
7. CNC1CCc2c(sc(NC(=O)c3ccc(C(C)(C)C)cc3)c2C(N)=O)C1 (configuration not stated)

*A*
1. 43.1
2. 91.8
3. 92.5
4. 67.2
5. 38
6. 18.8
7. 90.6

###

System: SW-620 colon
Assay procedure: NCI-60 one-dose screen, 48 h (100 = growth as untreated, 0 = no growth, -100 = all killed)
Conditions used: 10 µM unless noted
This is part of a sample that, as a whole, favours compounds with a hit. Of some 83,000 tested, about 20% had one in any assay.
Readout label: growth (%)
Answers are plain numbers, in %.

>>> print(df.to_string())
                                   compound  target_under_test  units_label  numeric_readout
0  N#Cc1cnc2ccc(-c3cnc(N)nc3)cc2c1N1CCc2cc(F)c(Cl)cc21       SW-620 colon            %             9.24
1  CC(=O)c1nnn(-c2c(C(=O)n3nc(C)cc3C)sc(=S)n2-c2ccccc2)c1C       SW-620 colon            %              112
2  Nc1nc(N)c2c(n1)NC(c1ccc(C(F)(F)F)cc1)CC(c1ccc(Nc3nc(NCCO)nc(N4CCOCC4)n3)cc1)=N2 (centres undefined)       SW-620 colon            %             56.7

Switching to the query record.
*Q* Identify growth associated with the compound `Cc1c(F)cc(C(N)=O)cc1NCC(=O)Nc1ccc([N+](=O)[O-])cc1`
*A* 92.9

###

System: SNB-19 CNS
Assay procedure: NCI-60 one-dose screen, 48 h (100 = growth as untreated, 0 = no growth, -100 = all killed)
Conditions used: 10 µM unless noted
The panel holds about 83,000 compounds, 20% with a hit somewhere; the sample as a whole holds those more often.
Readout label: growth (%)
Answers are plain numbers, in %.

>>> df
                                   molecule  readout_label  units_label  numeric_readout
0  O=C(Nc1ccc(N=Cc2c(O)[nH]c3ccccc23)cc1)Nc1nccs1         growth            %               31
1  Cc1ccc2c(c1)C13C(=C2Br)CCCN1C(=O)c1ccccc13 (centres undefined)         growth            %             89.2
2  COc1ccc([C@H]2[C@H](O)C(=O)N2c2cc(OC)c(OC)c(OC)c2)cc1F         growth            %             27.7

*Q* Identify growth associated with the molecule `CNC(=O)c1cc(Oc2ccc3nc(NC(=O)c4cc(N5CCOCC5)cc(C(F)(F)F)c4)sc3c2)ccn1`
*A* 92.9

###

System: A498 renal
Assay procedure: NCI-60 one-dose screen, 48 h (100 = growth as untreated, 0 = no growth, -100 = all killed)
Conditions used: 10 µM unless noted
Compounds without any hit were thinned out: in the full panel of roughly 83,000, 20% have a hit.
Readout label: growth (%)
One number for each entry, in %.

Would you please look over these solved cases?
>>> df
                                   compound  readout_label  numeric_readout
0  COc1cc2nc(Cl)nc(Nc3cccc(C4=Nc5c(N)nc(N)nc5NC(c5ccccc5)C4)c3)c2cc1OC (configuration not stated)         growth             88.9
1  Cc1ccc(S(=O)(=O)N(CC[C@@H]2C[C@H]2c2cc3ccccc3o2)S(=O)(=O)c2ccc(C)cc2)cc1         growth             75.8
2  CC1(C)[C@@H](O)CC[C@]2(C)[C@H]3CC[C@@H]4[C@H]5[C@H](C(=O)/C=C\c6ccccn6)CC[C@]5(O)CC[C@@]4(C)[C@]3(C)CC[C@@H]12         growth               22

List the reported growth of each compound below.
1. FC(F)(F)c1cc(Nc2cccc(Oc3ccc(NC4=NCCN4)nc3)c2)ccc1Cl
2. Cc1ccc(-c2cc3nc(C(Cl)Cl)nc(-c4ccco4)n3n2)cc1

*A*
37.9
-29.1

List the reported growth of each compound below.
1. O=C(NNc1nc2cc(F)c(F)cc2n2c(CN3CC4CNCC4C3)ccc12)c1cnccn1 (configuration not stated)
2. COCCNc1ccc2ncc(C#Cc3cncc(C(=O)Nc4ccc(CN5CCN(C)CC5)c(C(F)(F)F)c4)c3)n2n1
3. O=C(NCCN1CCCC1)c1ccc(-c2nc3ccc4[nH]ncc4c3c3c2CCCC3)cc1
4. CCn1c(SCC(=O)Nc2cccc(C(=O)/C=C/c3ccc(Br)cc3)c2)nc2ccccc2c1=O
5. COc1ccc(OC)c(-c2nc(SCC(=O)c3ccc(Br)cc3)nc(Nc3ccc(S(N)(=O)=O)cc3)c2C#N)c1
6. COc1ccc(C2CC(c3cccc(Nc4nc(Cl)nc5cc(OC)c(OC)cc45)c3)=Nc3c(N)nc(N)nc3N2)cc1 (configuration not stated)

*A*
35.1
-98
-80
87.3
26.4
94.7

*Q* Identify growth associated with the compound `CCCCCc1ccc(S(=O)(=O)Nc2cc(-c3csc(NC(=O)CN4CCN(CCO)CC4)n3)ccc2OC)cc1`
*A* 63.1
